molecular target: Human adrenergic α2B receptor (Homo sapiens, UniProt P18089); experiment: Radioligand binding, adrenergic α2B (Protocol Group B); design: purchased Milipore (Millipore); settings: 30 nM compound; Protocol Group B; read-out: Percentage inhibition of ligand binding, Adrenergic α2B (30 nM)
Sequence (P18089 whole entry): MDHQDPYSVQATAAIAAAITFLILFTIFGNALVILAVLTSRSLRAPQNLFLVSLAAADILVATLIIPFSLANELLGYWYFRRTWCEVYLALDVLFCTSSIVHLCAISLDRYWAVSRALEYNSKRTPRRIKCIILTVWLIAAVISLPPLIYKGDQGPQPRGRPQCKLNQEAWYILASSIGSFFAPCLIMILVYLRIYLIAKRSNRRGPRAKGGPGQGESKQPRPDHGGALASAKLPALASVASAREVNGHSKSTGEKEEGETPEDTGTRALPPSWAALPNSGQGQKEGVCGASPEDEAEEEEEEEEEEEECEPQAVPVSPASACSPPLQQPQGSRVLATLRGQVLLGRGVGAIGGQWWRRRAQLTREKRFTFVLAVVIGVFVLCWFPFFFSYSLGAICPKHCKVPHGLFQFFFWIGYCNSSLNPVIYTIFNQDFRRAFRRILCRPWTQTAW
# Lookup of reported inhibition at 0.03 µM keyed by entry
Value expressed in %; do not type the unit.

Recorded results for 3 compounds are shown here.
CC(O)(Cn1c2c(c3cc(F)ccc31)C1CCCN1CC2)c1ccncc1 (single isomer, unassigned) [31a]
90
Cc1ccc2c(c1)c1c(n2CC(O)c2ccncc2)CCN2CCCC12 (single isomer, unassigned) [Compound No. 178d]
97
Cc1cc(Br)c2c(c1)c1c(n2CC(O)c2ccncc2)CCN2CCCC12 (single isomer, unassigned) [145a]
84

Read the next record carefully.
## Input Reported inhibition at 0.03 µM, compound Cc1ccc2c(c1)c1c(n2CC(OCC2CCC2)c2ccncc2)CCN2CCCC12 (single isomer, unassigned) [138a] : ____
## Output 90
